test system: T1, human ROR1 on cell lines (human, UniProt Q01973 30-937)
T1 construct: Jeko-1 'bearing the ROR1 antigen'); also called Receptor tyrosine kinase-like orphan receptor 1
T1 sequence (Q01973 30-937 limits assumed): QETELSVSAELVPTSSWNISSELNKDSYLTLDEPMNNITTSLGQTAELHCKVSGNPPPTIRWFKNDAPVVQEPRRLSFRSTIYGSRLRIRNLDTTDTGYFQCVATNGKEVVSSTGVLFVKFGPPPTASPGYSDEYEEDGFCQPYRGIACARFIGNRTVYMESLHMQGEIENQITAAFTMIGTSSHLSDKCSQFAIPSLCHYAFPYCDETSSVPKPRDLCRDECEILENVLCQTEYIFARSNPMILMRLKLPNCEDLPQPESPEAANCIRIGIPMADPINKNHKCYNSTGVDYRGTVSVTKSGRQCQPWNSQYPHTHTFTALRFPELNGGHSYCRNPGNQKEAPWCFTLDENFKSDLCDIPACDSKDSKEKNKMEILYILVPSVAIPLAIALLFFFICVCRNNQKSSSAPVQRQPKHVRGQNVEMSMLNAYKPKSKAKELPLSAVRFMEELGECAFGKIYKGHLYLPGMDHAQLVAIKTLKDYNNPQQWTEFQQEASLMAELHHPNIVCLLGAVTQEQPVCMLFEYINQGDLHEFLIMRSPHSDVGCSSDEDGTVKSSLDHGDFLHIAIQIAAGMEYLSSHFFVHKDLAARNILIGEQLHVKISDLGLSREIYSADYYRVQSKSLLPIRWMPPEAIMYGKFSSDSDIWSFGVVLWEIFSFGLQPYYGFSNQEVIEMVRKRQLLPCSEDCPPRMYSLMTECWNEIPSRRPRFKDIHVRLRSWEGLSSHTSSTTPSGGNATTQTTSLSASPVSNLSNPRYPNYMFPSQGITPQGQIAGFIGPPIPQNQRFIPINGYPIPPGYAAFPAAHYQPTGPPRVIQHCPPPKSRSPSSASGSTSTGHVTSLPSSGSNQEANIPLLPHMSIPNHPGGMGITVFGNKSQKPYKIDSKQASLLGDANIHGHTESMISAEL
protocol summary: flow cytometry on Jeko-1 cells, FITC secondary, surface signal left after 37 C, 30 min T1 (secondary only 216)

>  <binder>
2A2-C-Terminal tag (antibody, V domains shown, C-terminal tag on the antibody (sequence not given), The protocol speaks of 'each ADC', so a payload may be attached; none is named; also called CT-tagged 2A2; C-terminal (CT)-tagged 2A2) VH: QVQLQQSGAELVRPGASVTLSCKASGYTFSDYEMHWVIQTPVHGLEWIGAIDPETGGTAYNQKFKGKAILTADKSSSTAYMELRSLTSEDSAVYYCTGYYDYDSFTYWGQGTLVTVSA VL: DIVMTQSQKIMSTTVGDRVSITCKASQNVDAAVAWYQQKPGQSPKLLIYSASNRYTGVPDRFTGSGSGTDFTLTISNMQSEDLADYFCQQYDIYPYTFGGGTKLEIK

>  <MFI>
959

$$$$
>  <binder>
2A2-CH1 tag (antibody, V domains shown, tag in CH1 (sequence and position not given), The protocol speaks of 'each ADC', so a payload may be attached; none is named; also called CH1-tagged 2A2) VH: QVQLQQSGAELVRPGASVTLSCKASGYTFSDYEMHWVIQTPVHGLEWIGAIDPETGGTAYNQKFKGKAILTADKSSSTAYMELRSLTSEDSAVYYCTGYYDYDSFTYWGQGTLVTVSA VL: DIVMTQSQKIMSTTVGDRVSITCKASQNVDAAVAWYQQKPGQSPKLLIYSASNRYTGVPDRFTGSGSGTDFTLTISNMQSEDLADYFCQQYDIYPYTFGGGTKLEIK

>  <MFI>
1050

$$$$
>  <binder>
2A2-CH1/C-Terminal double tag (antibody, V domains shown, tags in CH1 and at the C-terminus (sequences and positions not given), The protocol speaks of 'each ADC', so a payload may be attached; none is named; also called CH1/CT double-tagged 2A2) VH: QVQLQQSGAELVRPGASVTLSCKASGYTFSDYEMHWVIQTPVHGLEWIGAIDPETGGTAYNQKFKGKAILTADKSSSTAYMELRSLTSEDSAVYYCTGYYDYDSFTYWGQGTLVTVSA VL: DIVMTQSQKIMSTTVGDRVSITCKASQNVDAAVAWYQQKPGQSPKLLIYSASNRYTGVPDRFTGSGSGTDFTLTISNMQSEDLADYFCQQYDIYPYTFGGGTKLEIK

>  <MFI>
869

$$$$
>  <binder>
2A2-untagged (antibody, V domains shown, also called untagged 2A2) VH: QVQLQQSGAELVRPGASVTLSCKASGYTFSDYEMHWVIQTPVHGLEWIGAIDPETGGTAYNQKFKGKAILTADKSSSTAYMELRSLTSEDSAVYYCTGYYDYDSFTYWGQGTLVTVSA VL: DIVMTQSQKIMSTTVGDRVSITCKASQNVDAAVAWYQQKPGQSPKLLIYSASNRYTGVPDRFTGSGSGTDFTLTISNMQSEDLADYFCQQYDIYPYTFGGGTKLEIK

>  <MFI>
1070

$$$$

The reported measurements were obtained from patent US20200338210A1.
